Data origin: paper PMC10786891

Biological target: T1, EsCas13d, nuclease-dead (Eubacterium siraeum, UniProt B0MS50, R295A;H300A;R849A;H854A)
T1 sequence: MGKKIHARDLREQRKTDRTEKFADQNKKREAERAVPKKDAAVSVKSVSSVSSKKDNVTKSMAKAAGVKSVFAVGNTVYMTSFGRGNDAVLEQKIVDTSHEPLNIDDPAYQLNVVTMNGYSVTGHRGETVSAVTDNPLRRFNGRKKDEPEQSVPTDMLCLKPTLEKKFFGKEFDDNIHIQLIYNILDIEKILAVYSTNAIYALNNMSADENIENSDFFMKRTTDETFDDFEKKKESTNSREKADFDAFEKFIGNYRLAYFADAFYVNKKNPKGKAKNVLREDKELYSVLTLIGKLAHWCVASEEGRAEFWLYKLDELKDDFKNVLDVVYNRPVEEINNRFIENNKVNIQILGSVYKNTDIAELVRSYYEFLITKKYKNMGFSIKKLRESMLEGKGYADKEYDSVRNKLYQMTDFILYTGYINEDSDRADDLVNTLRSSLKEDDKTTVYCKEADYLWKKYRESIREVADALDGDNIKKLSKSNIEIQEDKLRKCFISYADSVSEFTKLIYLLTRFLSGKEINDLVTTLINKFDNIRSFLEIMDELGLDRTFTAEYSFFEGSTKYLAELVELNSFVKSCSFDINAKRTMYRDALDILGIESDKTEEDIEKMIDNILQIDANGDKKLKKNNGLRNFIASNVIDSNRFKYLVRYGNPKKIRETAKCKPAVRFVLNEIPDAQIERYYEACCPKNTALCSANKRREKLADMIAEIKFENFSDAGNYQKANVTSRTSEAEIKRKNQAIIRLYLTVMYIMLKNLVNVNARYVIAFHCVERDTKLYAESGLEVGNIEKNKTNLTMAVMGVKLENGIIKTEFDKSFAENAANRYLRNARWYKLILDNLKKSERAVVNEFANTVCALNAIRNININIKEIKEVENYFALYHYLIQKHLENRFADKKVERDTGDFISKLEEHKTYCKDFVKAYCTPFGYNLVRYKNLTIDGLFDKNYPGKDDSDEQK
Assay: crRNA (strand 1, pre-loaded); Mg2+; 40 mM Tris-HCl pH 7.5, 150 mM NaCl, 6 mM MgCl2, 1 mM DTT, 0.1% Tween-20, 0.2 mg/ml BSA; 25 C; 10 min per concentration, then washed
Conditions: tags: His6-TwinStrep-SUMO cleaved; N-terminal SNAP kept (SNAP-Surface 488); label: 3' end held by stalled T7 RNA polymerase
Listed here: items and their measured Kd.
Recorded metric: Kd (nM)

* target 1 MT 5'PFS UAU 3'PFS UUA (mixed) RNA 1: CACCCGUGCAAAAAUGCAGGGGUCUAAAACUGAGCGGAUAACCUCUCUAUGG RNA 2: GGGAAUGGAUCCACAUCUACGAAUUCUAUCCAUAGAGAGGUUAUCCGCUCAUUAAGAUCGGAAGAGCACACGU | 18.1
* target 1 U11A,G12A (mixed) RNA 1: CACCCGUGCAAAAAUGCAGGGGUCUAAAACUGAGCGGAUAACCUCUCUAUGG RNA 2: GGGAAUGGAUCCACAUCUACGAAUUCGUACCAUAGAGAGAAUAUCCGCUCACCGAGAUCGGAAGAGCACACGU | 4
* target 2 MT 5'PFS CUU 3'PFS AUC (mixed) RNA 1: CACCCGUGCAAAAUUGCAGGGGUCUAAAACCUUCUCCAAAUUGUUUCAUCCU RNA 2: GGGAAUGGAUCCACAUCUACGAAUUCCUUAGGAUGAAACAAUUUGGAGAAGAUCAGAUCGGAAGAGCACACGU | 5.1
* target 2 MT 5'PFS CUG 3'PFS CUU (mixed) RNA 1: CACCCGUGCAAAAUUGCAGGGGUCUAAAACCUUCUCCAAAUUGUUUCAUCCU RNA 2: GGGAAUGGAUCCACAUCUACGAAUUCCUGAGGAUGAAACAAUUUGGAGAAGCUUAGAUCGGAAGAGCACACGU | 3.55
